target: free FIXa (activated Factor IX) (UniProt P00740 47-191; P00740 227-461); assay: BLI
pKd: −log10 of the molar value.

>  <Binder>
BIIB-9-568 (antibody, V domains shown) VH: QLQLQESGPGLVKPSETLSLTCTVSGGSISSSSYYWGWIRQPPGKGLEWIGSIYYSGSTYYNPSLKSRVTISVDTSKNQFSLKLSSVTAADTAVYYCARDLGYAATYFDLWGRGTLVTVSS VL: DIQMTQSPSSLSASVGDRVTITCQASQDISNYLNWYQQKPGKAPKLLIYDASNLETGVPSRFSGSGSGTDFTFTISSLQPEDIATYYCQQYDDYLTFGGGTKVEIK

>  <pKd>
8.26

$$$$
>  <Binder>
BIIB-9-1268 (antibody, V domains shown) VH: QVQLVQSGAEVKKPGASVKVSCKASGYTFTSYYMHWVRQAPGQGLEWMGIINPSGGSTSYAQKFQGRVTMTRDTSTSTVYMELSSLRSEDTAVYYCARDPPSWYVFDIWGQGTMVTVSS VL: EIVMTQSPATLSLSPGERATLSCRASQSVSSYLAWYQQKPGQAPRLLIYDASNRATGIPARFSGSGSGTDFTLTISSLEPEDFAVYYCQQATVWPFTFGGGTKVEIK

>  <pKd>
7.29

$$$$
>  <Binder>
BIIB-9-1266 (antibody, V domains shown) VH: QVQLVQSGAEVKKPGASVKVSCKASGYTFTSYYMHWVRQAPGQGLEWMGIINPSGGSTSYAQKFQGRVTMTRDTSTSTVYMELSSLRSEDTAVYYCARDHGWAIYGMDVWGQGTTVTVSS VL: EIVMTQSPATLSLSPGERATLSCRASQSVSSYLAWYQQKPGQAPRLLIYDSSNRATGIPARFSGSGSGTDFTLTISSLEPEDFAVYYCQQRLNFPFTFGGGTKVEIK

>  <pKd>
7.37

$$$$
